Let's look at some compounds and their measured EC50.
- tested-target: TRPML1 (Homo sapiens, UniProt Q9GZU1)
- Sequence (Q9GZU1 whole entry L15A/L16A/L577A/L578A, form open): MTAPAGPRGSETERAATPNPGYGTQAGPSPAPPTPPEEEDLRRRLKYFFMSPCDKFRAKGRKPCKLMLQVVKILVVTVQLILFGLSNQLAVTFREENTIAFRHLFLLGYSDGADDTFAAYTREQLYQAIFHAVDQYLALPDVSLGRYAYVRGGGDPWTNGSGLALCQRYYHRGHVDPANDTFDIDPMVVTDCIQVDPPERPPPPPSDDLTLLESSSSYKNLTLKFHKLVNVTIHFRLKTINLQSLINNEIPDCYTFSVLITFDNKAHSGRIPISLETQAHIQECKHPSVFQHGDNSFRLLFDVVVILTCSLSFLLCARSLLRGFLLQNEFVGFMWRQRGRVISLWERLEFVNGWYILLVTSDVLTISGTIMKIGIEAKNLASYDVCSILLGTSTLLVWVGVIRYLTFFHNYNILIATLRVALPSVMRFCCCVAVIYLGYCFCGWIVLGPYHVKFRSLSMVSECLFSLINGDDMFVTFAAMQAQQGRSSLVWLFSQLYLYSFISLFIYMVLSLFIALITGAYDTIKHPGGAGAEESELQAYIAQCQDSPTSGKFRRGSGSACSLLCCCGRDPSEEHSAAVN
- assay-info: Fluorescent TRPML1 assay (Fluo4-AM calcium fluorescence in doxycycline-induced HEK-293 Trex cells)
- Type: cell-based
- applied-conditions: fluorescent calcium assay

Reference set (3 entries):
C[C@@H]1CN(c2ncnc3c2c(N2CCCC2)cn3-c2cc(F)c(F)c(F)c2)CCN1C(=O)OC(C)(C)C [Compound 362] : < 0.1 µM
C[C@H]1CN(C(=O)OC(C)(C)C)CCN1c1ncnc2c1c(-c1ccccc1)cn2-c1cc(C#N)ccn1 [Compound 320] : < 0.1 µM
Cc1c(Cl)cccc1-n1cc(-c2cnccn2)c2c(N3CCN(C(=O)OC(C)(C)C)CC3C)ncnc21 (stereo not shown) [Compound 162] : 0.5 to 2 µM

Here's the next entry for you.
Given C[C@@H]1CN(c2ncnc3c2c(-c2ccccc2F)cn3-c2cc(C#N)ccn2)CCN1C(=O)OCC(F)(F)F [Compound 378] , state its recorded EC50. < 0.1 µM
